Target: FLT-3 kinase (Homo sapiens)
Construct: human FLT-3 (Arg571-Ser993); GST (N); purchased Cell Signaling Technology HTScan FLT-3 Kinase Assay Kit; host or cells: baculovirus expression system
Experiment: FLT-3 kinase DELFIA assay (HTScan FLT-3 Kinase Assay Kit)
Type: biochemical
Settings: 0.1 uM compound, 20 uM ATP

| Compound | inhibition at 0.1 µM (%) |
| --- | --- |
| O=c1[nH]c2cccccc-2c1-c1cn2cc(Br)ccc2n1 [Compound B17] | 4.9 |
| Nc1cc(N2CCN(c3ccc4[nH]c(-c5c6cccccc-6[nH]c5=O)nc4c3)CC2)ccn1 [Compound B62] | 9.5 |
| O=C(Nc1ccc2[nH]c(-c3c4cccccc-4[nH]c3=O)nc2c1)Nc1ccccc1C(F)(F)F [Compound B131] | 7.9 |
| CN1CCN(c2ccc3[nH]c(-c4c5cccccc-5[nH]c4=O)nc3c2)CC1 [Compound B26] | 45.6 |
| O=c1[nH]c2cccccc-2c1-c1nc2cc(C(F)(F)F)ccc2[nH]1 [Compound B4] | 13.7 |
| O=c1[nH]c2cccccc-2c1-c1nc2cc3ccccc3cc2[nH]1 [Compound B18] | 16.4 |
| O=c1[nH]c2cccccc-2c1-c1nc2cc([N+](=O)[O-])ccc2[nH]1 [Compound B5] | 12.8 |
| CN(C)CCCN1CCN(c2ccc3[nH]c(-c4c5cccccc-5[nH]c4=O)nc3c2)CC1 [Compound B33] | 58.7 |
| O=c1[nH]c2cccccc-2c1-c1nc2cc(N3CCC(N4CCOCC4)CC3)ccc2[nH]1 [Compound B103] | 36.5 |
| O=c1[nH]c2cccccc-2c1-c1nc2cc(N3CCN(CCO)CC3)ccc2[nH]1 [Compound B36] | 24.8 |
| O=C(Nc1ccc(C(F)(F)F)cc1)Nc1ccc2[nH]c(-c3c4cccccc-4[nH]c3=O)nc2c1 [Compound B133] | 30.5 |
| O=CN1CCN(c2ccc3[nH]c(-c4c5cccccc-5[nH]c4=O)nc3c2)CC1 [Compound B54] | 46 |
| O=c1[nH]c2cccccc-2c1-c1nc2cc(N3CCN(CCF)CC3)ccc2[nH]1 [Compound B38] | 21.8 |
| O=c1[nH]c2cccccc-2c1-c1nc2cc(N3CCNCC3)ccc2n1CC(F)(F)F [Compound B23] | 41.2 |
| O=c1[nH]c2cccccc-2c1-c1cn2ccc(Cl)cc2n1 [Compound B16] | 4.8 |
| CN1CCCN(c2cc3nc(-c4c5cccccc-5[nH]c4=O)[nH]c3cc2F)CC1 [Compound B85] | 44.4 |
| COc1cccc(NC(=O)Nc2ccc3[nH]c(-c4c5cccccc-5[nH]c4=O)nc3c2)c1 [Compound B138] | 35.6 |
| Nc1ccc2[nH]c(-c3c4cccccc-4[nH]c3=O)nc2c1 [Compound B6] | 12.8 |
| O=c1[nH]c2cccccc-2c1-c1nc2cc(N3CCN(c4ncccc4Cl)CC3)ccc2[nH]1 [Compound B66] | 20.3 |
| O=c1[nH]c2cccccc-2c1-c1nc2cc(N3CCN(c4ncccn4)CC3)ccc2[nH]1 [Compound B68] | 39.1 |
| O=c1[nH]c2cccccc-2c1-c1nc2cc(N3CCNCC3)ccc2[nH]1 [Compound B22] | 29.1 |
| O=c1[nH]c2cccccc-2c1-c1nc2cc(N3CCN(c4cnccn4)CC3)ccc2[nH]1 [Compound B69] | 29.3 |
| CN1CCN(C(=O)c2ccc3[nH]c(-c4c5cccccc-5[nH]c4=O)nc3c2)CC1 [Compound B71] | 6.8 |
| O=c1[nH]c2cccccc-2c1-c1cn2cccnc2n1 [Compound B12] | 4.5 |
| CC(C)(C)OC(=O)Nc1ccc2[nH]c(-c3c4cccccc-4[nH]c3=O)nc2c1 [Compound B20] | 16.7 |
| O=c1[nH]c2cccccc-2c1-c1cn2ccccc2n1 [Compound B9] | 5.8 |
| O=Cc1ccc(N2CCN(c3ccc4[nH]c(-c5c6cccccc-6[nH]c5=O)nc4c3)CC2)o1 [Compound B59] | 55.6 |
| O=c1[nH]c2cccccc-2c1-c1nc2cc(N3CCN(C[C@@H](O)CO)CC3)ccc2[nH]1 [Compound B40] | 38.2 |
| CCCCN(CCCC)CCN1CCN(c2ccc3[nH]c(-c4c5cccccc-5[nH]c4=O)nc3c2)CC1 [Compound B34] | 40.2 |
| O=C(Nc1ccc2[nH]c(-c3c4cccccc-4[nH]c3=O)nc2c1)Nc1cc(F)ccc1F [Compound B120] | 10.2 |
| O=c1[nH]c2cccccc-2c1-c1nc2cc(O)ccc2[nH]1 [Compound B8] | 9.8 |
| O=C(Nc1cc(C(F)(F)F)cc(C(F)(F)F)c1)Nc1ccc2[nH]c(-c3c4cccccc-4[nH]c3=O)nc2c1 [Compound B134] | 36.8 |
| CN1CCC(N2CCN(c3ccc4[nH]c(-c5c6cccccc-6[nH]c5=O)nc4c3)CC2)CC1 [Compound B35] | 42 |

====

Biological target: FLT-3 kinase (Homo sapiens, UniProt P36888)
Construct: human FLT-3 (Arg571-Ser993); GST (N); purchased Cell Signaling Technology HTScan FLT-3 Kinase Assay Kit; host or cells: baculovirus expression system
Sequence (P36888 571-993): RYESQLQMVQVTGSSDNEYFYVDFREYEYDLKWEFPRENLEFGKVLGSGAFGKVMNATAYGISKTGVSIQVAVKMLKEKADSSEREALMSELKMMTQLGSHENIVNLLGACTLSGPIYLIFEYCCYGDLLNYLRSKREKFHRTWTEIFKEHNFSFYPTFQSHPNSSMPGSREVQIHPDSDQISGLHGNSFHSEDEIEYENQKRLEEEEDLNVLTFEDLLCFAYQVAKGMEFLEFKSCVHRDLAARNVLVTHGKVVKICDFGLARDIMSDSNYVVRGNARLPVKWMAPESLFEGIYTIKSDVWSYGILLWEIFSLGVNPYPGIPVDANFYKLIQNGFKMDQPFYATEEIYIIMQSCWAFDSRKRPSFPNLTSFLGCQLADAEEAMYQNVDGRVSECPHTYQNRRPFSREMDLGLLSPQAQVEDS
Assay: FLT-3 kinase DELFIA assay (HTScan FLT-3 Kinase Assay Kit)
Assay type: biochemical
Conditions: 0.1 uM compound, 20 uM ATP
Answer class 0 if inhibition at 0.1 µM is under 20%, and class 1 if it is 20% or more.

| Compound | Classification |
| --- | --- |
| O=C(c1ccccc1)c1ccc2[nH]c(-c3c4cccccc-4[nH]c3=O)nc2c1 [Compound B114] | class 0 |
| O=c1[nH]c2cccccc-2c1-c1nc2cc(N3CCN(S(=O)(=O)CCCl)CC3)ccc2[nH]1 [Compound B58] | class 1 |
| O=C(Nc1ccc2[nH]c(-c3c4cccccc-4[nH]c3=O)nc2c1)Nc1cc(C(F)(F)F)ccc1Cl [Compound B135] | class 1 |
| O=c1[nH]c2cccccc-2c1-c1nc2cc(N3CCCN(c4ncccc4[N+](=O)[O-])CC3)ccc2[nH]1 [Compound B95] | class 0 |
| CN1CCN(c2ccc3[nH]c(-c4c5cccccc-5[nH]c4=O)nc3c2F)CC1 [Compound B51] | class 1 |
| O=c1[nH]c2cccccc-2c1-c1nc2cc(N3CCCNCC3)ccc2n1CCF [Compound B79] | class 1 |

====

Molecular target: FLT-3 kinase (Homo sapiens)
Construct: human FLT-3 (Arg571-Ser993); GST (N); purchased Cell Signaling Technology HTScan FLT-3 Kinase Assay Kit; host or cells: baculovirus expression system
Experiment: FLT-3 kinase DELFIA assay (HTScan FLT-3 Kinase Assay Kit)
Type: biochemical
Settings: 1 uM compound, 20 uM ATP
Protocol: Azaazulene Compounds of this invention were treated for their efficacy in inhibiting activities of FLT-3, c-KIT and KDR kinases by biochemical DELFIA (Dissociation Enhanced Lanthanide FIA) assays according to the procedure described below. The assays were conducted by, Division of Cell Engineering, Biomedical Engineering Research Laboratories, Industrial Technology Research Institute, Bldg. 53, 195, sec. 4, Chung Hsing Rd. Chutung, Hsinchu, Taiwan 310, R.O.C. […]
Would you please tag the item satisfied when its inhibition at 1 µM is 40% or above, and not satisfied when it is below?

| Smiles Entry | Classification |
| --- | --- |
| O=c1[nH]c2cccccc-2c1-c1nc2cccnc2[nH]1 | not satisfied |
| O=C(c1ccc2[nH]c(-c3c4cccccc-4[nH]c3=O)nc2c1)N1CCN(c2ccncc2)CC1 | satisfied |
| O=c1[nH]c2cccccc-2c1-c1nc2cc(N3CCN(CCO)CC3)ccc2[nH]1 | satisfied |
| O=c1[nH]c2cccccc-2c1-c1nc2cc(N3CCCN(c4ccccn4)CC3)ccc2[nH]1 | satisfied |
| CN(C)CCCN1CCN(c2ccc3[nH]c(-c4c5cccccc-5[nH]c4=O)nc3c2)CC1 | satisfied |
| CCOCC1CCN(c2ccc3[nH]c(-c4c5cccccc-5[nH]c4=O)nc3c2)CC1 | not satisfied |
| O=c1[nH]c2cccccc-2c1-c1nc2cc(N3CCN(CCCF)CC3)ccc2[nH]1 | satisfied |
| Nc1ncnc2[nH]c(-c3c4cccccc-4[nH]c3=O)nc12 | not satisfied |

====

Entries and their measured inhibition at 1 µM follow.
Biological target: c-KIT kinase (Homo sapiens)
Construct: human c-KIT (Thr544-Val976); GST (N); purchased Cell Signaling Technology HTScan c-KIT Kinase Assay Kit; host or cells: baculovirus expression system
Sequence (P10721 544-976): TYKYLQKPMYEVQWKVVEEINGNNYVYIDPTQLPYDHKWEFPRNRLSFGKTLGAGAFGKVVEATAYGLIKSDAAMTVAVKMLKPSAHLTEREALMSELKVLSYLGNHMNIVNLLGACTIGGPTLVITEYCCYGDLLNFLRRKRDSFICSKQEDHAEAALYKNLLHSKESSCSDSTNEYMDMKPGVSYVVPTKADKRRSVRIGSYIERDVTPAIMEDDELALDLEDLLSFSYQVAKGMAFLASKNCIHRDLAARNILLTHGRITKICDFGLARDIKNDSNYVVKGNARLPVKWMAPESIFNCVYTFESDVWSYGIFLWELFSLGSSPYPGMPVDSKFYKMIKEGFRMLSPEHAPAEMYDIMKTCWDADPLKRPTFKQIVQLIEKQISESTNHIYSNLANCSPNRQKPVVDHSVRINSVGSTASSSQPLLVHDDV
Test: c-KIT kinase DELFIA assay (HTScan c-KIT Kinase Assay Kit)
Type: biochemical
Settings: 1 uM compound, 20 uM ATP

| Compound | inhibition at 1 µM (%) |
| --- | --- |
| O=c1[nH]c2cccccc-2c1-c1nc2cc([N+](=O)[O-])ccc2[nH]1 | 56.8 |
| Nc1ccc2[nH]c(-c3c4cccccc-4[nH]c3=O)nc2c1 | 62.6 |
| O=c1[nH]c2cccccc-2c1-c1cn2ccccc2n1 | 24.4 |
| O=c1[nH]c2cccccc-2c1-c1nc2cc(N3CCCN(c4ccccn4)CC3)ccc2[nH]1 | 79.1 |
| Cc1cc(N2CCCN(c3ccc4[nH]c(-c5c6cccccc-6[nH]c5=O)nc4c3)CC2)nc(N(C)C)n1 | 87.2 |
| CN(C)CCCN(C)c1ccc2[nH]c(-c3c4cccccc-4[nH]c3=O)nc2c1 | 55.4 |
| O=c1[nH]c2cccccc-2c1-c1nc2cc(N3CCCN(Cc4cccnc4)CC3)ccc2[nH]1 | 96.2 |
| O=c1[nH]c2cccccc-2c1-c1nc2cc(N3CCCNCC3)ccc2n1CCCF | 17.2 |
| Nc1ncnc2[nH]c(-c3c4cccccc-4[nH]c3=O)nc12 | 43.7 |
| CCN(CC)CCn1c2cccccc-2c(-c2nc3ccccc3[nH]2)c1=O | 41.1 |
| O=c1[nH]c2cccccc-2c1-c1nc2ccccc2[nH]1 [Compound A1, 3-(benzimidazol-2-yl)-1-azaazulen-2-one, reference compound] | 64.5 |
| COc1ccc2nc(-c3c4cccccc-4[nH]c3=O)cn2c1 | 39.4 |
